target: T1, human A-beta(1-40) peptide, monomeric (BAM) (human, biotin at the C-terminus in capture ELISA, SPR and TR-FRET; not biotinylated where coated directly (Example 7)); experiment: TR-FRET competition; labelled competitor not given
T1 construct: synthetic peptide (Anaspec), TFA/HFIP treated to give monomer; also called monomeric A-beta
Reported IC50 values for a set of binders

- binder: "ABII060 (VHH, humanized variant of ABII050) VHH: EVQLLESGGGLVQPGGSLRLSCAASGRTFNNYNMGWFRQAPGKGREFVAAVSRSGVSTYYADSVKGRFTISRDNSKNTLYLQMNSLRPEDTAVYYCAAAYRGTAINVRRSYSSWGQGTLVTVSS"
  unit abbrev: "nM"
  IC50: 50
- binder: "ABII017 (VHH, humanized variant of ABII002) VHH: EVQLLESGGGLVLPGGSLRLSCVHSGPTFRTDTMGWFRQAPGKGREFVAAVTWNSGRINYADSVKGRFTVSRDNTRNAAYLQMSGLKDEDTAVYYCAAHRFVVGGNRVEDWRYWGQGTLVTVSS"
  unit abbrev: "nM"
  IC50: 2.4
- binder: "ABII015 (VHH, humanized variant of ABII002) VHH: EVQLLESGGGLVLPGGSLRLSCVHSGPTFRTDTMGWFRQAPGKGREFVAAVTWNSGRINYADSVKGRFTVSRDNTRNAAYLQMSGLKAEDTAVYYCTAHRFVVGGNRVEDWRYWGQGTLVTVSS"
  unit abbrev: "nM"
  IC50: 1.8
- binder: "ABII059 (VHH, humanized variant of ABII050) VHH: EVQLLESGGGLVQPGGSLRLSCAASGRTFNNYNMGWFRQAPGKGREFVAAVSRSGVSTYYADSVKGRFTISRDNSKNTVYLQMNSLRPEDTAVYYCAAAYRGTAINVRRSYSSWGQGTLVTVSS"
  unit abbrev: "nM"
  IC50: 33
